# maps each entry to its IC50
system: HCT-116 cell line; assay: Inhibition of cell growth, tetrazolium salt (MTT) assay; format: cell-based; conditions: Homo sapiens, HCT-116, 120 h, first HCT-116 column (c4); MTT, three to five days; read-out: HCT-116 IC50
Structures can show the parent of a compound that is named as a salt.

Worked cases, IC50 given:
| molecule | IC50 |
| --- | --- |
| Nc1nc(NC2CCN(S(=O)(=O)c3ccc(C(=O)O)cc3)CC2)sc1C(=O)c1c(F)cccc1F | < 5 µM |
| CC(C)(C)NCCC(=O)N1CCC(Nc2nc(N)c(C(=O)c3c(F)cccc3F)s2)CC1 [Example U4, Acetic Acid Salt] | > 5 µM |
| Nc1nc(NC2CCN(S(=O)(=O)CCCc3nnn[nH]3)CC2)sc1C(=O)c1c(F)cccc1F | > 5 µM |
| Cn1ccnc1SCCCS(=O)(=O)N1CCC(Nc2nc(N)c(C(=O)c3c(F)cccc3F)s2)CC1 | > 0.5 µM |
| Nc1nc(NC2CCN(S(=O)(=O)c3ccc(S)nc3)CC2)sc1C(=O)c1c(F)cccc1F [Example L4, Hydrochloride] | > 0.5 µM |
| Nc1nc(NC2CCN(C(=O)c3c[nH]cn3)CC2)sc1C(=O)c1c(F)cccc1F | > 5 µM |

# context switch: different molecule, same IC50
## Task Item CN1CCC(C(=O)N2CCC(Nc3nc(N)c(C(=O)c4c(F)cccc4F)s3)CC2)CC1 [Example D1] : provide IC50
## Result > 5 µM

* * *

The molecules listed here are annotated with their CDK4 % Inhibition at 0.03 μM.
target: human CDK4 and genetically truncated (1-264) cyclin D3 (Homo sapiens, UniProt P11802); assay: Inhibition of CDK4/Cyclin D Retinoblastoma Kinase Activity; format: biochemical; details: 0.03 μM compound; Table 3
Sequence (P11802 whole entry, the tested form may be a part): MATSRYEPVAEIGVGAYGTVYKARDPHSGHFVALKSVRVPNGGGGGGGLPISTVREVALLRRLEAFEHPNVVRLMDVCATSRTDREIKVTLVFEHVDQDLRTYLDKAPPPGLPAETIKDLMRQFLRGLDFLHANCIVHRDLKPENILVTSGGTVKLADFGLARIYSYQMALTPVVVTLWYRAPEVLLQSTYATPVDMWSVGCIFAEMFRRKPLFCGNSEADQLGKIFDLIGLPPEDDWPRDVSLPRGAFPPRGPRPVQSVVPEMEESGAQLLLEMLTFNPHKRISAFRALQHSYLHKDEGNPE
Sequence (P30281 1-264 partner): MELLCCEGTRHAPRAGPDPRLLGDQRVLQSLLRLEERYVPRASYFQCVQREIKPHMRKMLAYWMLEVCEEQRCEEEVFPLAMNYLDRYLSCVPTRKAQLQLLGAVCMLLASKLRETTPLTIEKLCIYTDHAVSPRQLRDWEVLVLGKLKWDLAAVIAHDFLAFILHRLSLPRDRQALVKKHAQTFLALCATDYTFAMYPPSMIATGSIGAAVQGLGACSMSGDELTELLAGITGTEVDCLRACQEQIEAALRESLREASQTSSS
Provide only the numeric value, understood in %.

Previously resolved entries follow.
| molecule | unit | endpoint result |
| --- | --- | --- |
| CCc1cc(Br)ccc1S(=O)(=O)N1CCC(Nc2nc(N)c(C(=O)c3c(F)cccc3F)s2)CC1 [Example P78] | % | 24 |
| Nc1nc(NC2CCN(S(=O)(=O)c3cccc(Cl)c3Cl)CC2)sc1C(=O)c1c(F)cccc1F [Example P39] | % | 42 |
| Nc1nc(NC2CCN(S(=O)(=O)c3cccc4ccccc34)CC2)sc1C(=O)c1c(F)cccc1F [Example P1] | % | 51 |

## Task Give the reported value of CDK4 % Inhibition at 0.03 μM for this record: Nc1nc(NC2CCN(S(=O)(=O)c3ccc(Br)cc3)CC2)sc1C(=O)c1c(F)cccc1F [Example P12]
## Result 54

* * *

molecular target: CDK2/Cyclin A (Homo sapiens); assay: Inhibition of CDK2/Cyclin A Retinoblastoma Kinase Activity; format: biochemical; details: at 0.03 μM
readout type: CDK2 % Inhibition at 0.03 μM (%)
Could you give me the number in %? Just the number is fine.

Consider the worked cases shown below.
| compound | endpoint result |
| --- | --- |
| Nc1nc(NC2CCN(C(=O)c3cccc(C(F)(F)F)c3)CC2)sc1C(=O)c1c(F)cccc1F [Example R139] | 50 |
| Cc1ccc(C(=O)N2CCC(Nc3nc(N)c(C(=O)c4c(F)cccc4F)s3)CC2)cc1 [Example R154] | 50 |

--- query ---
## Task Could you please provide reported CDK2 % Inhibition at 0.03 μM for Cn1nc(C(C)(C)C)cc1C(=O)N1CCC(Nc2nc(N)c(C(=O)c3c(F)cccc3F)s2)CC1 [Example R60] ? Thanks!
## Result 45

Entry source: patent US20050101595A1
